# ASSAYED_TARGET: rat IP3R1 (recombinant, expressed in DT40 cells) (Rattus norvegicus)
# Sequence (P29994 1-2735 isoform P29994-2): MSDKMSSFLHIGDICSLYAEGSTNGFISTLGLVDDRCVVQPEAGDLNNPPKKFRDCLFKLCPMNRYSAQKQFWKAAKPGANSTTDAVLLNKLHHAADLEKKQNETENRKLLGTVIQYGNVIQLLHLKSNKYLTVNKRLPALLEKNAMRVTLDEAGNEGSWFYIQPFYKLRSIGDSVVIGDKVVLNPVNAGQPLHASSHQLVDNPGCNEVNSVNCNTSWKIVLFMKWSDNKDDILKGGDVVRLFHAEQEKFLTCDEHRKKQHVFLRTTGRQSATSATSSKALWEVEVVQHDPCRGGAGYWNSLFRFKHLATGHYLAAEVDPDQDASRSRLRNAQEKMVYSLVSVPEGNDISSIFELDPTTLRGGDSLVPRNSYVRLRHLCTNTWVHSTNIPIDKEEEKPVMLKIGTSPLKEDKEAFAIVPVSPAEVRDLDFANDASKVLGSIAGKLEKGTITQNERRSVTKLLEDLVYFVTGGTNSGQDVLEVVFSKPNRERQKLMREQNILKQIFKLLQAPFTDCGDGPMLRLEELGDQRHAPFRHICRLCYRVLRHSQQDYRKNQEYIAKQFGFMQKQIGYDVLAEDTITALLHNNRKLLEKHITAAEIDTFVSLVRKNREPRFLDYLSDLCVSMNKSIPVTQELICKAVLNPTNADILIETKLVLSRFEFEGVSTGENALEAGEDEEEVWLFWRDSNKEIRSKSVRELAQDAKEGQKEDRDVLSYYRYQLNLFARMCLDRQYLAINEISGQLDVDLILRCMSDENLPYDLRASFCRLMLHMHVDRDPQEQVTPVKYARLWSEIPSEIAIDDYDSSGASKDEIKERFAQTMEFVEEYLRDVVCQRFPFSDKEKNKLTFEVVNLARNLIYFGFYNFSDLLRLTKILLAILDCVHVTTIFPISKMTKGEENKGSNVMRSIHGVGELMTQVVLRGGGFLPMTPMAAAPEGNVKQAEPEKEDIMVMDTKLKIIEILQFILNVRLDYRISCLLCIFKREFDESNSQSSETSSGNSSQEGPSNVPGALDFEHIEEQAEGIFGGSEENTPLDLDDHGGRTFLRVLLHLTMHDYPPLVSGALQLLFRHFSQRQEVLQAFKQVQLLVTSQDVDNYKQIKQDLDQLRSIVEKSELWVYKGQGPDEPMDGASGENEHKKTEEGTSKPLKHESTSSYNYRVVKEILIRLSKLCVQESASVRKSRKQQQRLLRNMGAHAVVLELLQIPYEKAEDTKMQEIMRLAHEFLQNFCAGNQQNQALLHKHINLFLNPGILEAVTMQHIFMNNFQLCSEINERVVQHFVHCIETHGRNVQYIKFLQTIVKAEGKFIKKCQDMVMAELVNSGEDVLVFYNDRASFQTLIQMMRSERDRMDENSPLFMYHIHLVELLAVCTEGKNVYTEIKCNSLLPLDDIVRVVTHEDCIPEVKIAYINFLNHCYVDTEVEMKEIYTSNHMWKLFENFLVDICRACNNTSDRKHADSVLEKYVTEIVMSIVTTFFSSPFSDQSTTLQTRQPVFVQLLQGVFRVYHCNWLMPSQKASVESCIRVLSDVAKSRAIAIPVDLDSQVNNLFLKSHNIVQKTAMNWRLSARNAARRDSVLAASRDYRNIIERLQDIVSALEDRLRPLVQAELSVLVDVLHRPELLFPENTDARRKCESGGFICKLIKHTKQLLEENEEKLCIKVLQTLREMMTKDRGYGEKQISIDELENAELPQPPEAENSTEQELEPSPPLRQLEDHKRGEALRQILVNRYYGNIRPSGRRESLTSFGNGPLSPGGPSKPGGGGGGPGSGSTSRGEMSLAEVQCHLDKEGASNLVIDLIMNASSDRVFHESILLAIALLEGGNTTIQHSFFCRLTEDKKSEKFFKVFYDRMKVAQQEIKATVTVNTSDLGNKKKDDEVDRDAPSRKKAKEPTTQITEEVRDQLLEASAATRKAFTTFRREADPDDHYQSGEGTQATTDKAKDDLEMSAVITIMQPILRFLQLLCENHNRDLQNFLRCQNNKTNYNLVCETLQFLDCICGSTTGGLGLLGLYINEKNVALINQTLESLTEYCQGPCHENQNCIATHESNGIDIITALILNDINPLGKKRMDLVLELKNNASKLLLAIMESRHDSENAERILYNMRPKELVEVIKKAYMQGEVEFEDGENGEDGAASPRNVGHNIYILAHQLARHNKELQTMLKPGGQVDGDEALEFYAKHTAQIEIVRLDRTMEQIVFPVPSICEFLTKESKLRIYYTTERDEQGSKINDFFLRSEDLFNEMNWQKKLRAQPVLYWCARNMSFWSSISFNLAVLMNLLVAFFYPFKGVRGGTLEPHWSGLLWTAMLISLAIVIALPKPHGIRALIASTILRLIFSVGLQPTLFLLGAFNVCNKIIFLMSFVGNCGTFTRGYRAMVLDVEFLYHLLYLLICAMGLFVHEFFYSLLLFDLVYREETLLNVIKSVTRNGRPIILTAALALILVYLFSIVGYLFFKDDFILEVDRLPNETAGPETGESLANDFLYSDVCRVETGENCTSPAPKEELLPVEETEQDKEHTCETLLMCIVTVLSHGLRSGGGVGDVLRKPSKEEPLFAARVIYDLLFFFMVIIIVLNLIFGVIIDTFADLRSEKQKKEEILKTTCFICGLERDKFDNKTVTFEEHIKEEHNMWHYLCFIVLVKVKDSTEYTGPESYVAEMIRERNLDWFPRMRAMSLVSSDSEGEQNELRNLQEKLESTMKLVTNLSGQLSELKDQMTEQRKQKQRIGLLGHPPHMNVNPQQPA
# MEASUREMENT_NOTES: Ca2+ release from intracellular stores of permeabilized DT40-IP3R1 cells
# Format: cell-based
# RECORDED_CONDITIONS: Ca2+ release pEC50 ± SEM, permeabilized DT40-IP3R1 cells, CLM
pEC50: −log10 of the molar value.

COMPOUND: Nc1ncnc2c1ncn2[C@@H]1O[C@H](CO)[C@@H](O[C@H]2O[C@H](CO)[C@@H](OP(=O)(O)O)[C@H](OP(=O)(O)O)[C@H]2O)[C@H]1OP(=O)(O)O [AdA, adenophostin A]
pEC50: 8.51

---

# ASSAYED_TARGET: IBC^R504Q fragment of IP3R1 (Rattus norvegicus, UniProt P29994, R504Q)
# Sequence (P29994 224-604 R504Q): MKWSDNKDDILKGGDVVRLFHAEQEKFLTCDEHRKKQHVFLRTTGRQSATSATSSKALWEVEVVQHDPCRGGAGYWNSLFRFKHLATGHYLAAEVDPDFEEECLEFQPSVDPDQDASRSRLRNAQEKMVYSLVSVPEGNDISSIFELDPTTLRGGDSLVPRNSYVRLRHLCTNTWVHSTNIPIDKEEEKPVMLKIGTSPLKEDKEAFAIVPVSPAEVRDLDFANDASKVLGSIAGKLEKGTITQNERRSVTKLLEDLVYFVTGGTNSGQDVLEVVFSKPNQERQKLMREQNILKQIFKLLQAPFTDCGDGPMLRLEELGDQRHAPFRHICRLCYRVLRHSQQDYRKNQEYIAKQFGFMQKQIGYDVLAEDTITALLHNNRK
# MEASUREMENT_NOTES: Equilibrium-competition 3H-IP3 binding to IBC^R504Q
# RECORDED_CONDITIONS: Kd, IBC^R504Q, CLM
pKd: −log10 of the molar value.
MEASURED_METRIC: pKd

COMPOUND: Nc1ncnc2c1ncn2[C@@H]1O[C@H](CO)[C@@H](O[C@H]2O[C@H](CO)[C@@H](OP(=O)(O)O)[C@H](OP(=O)(O)O)[C@H]2O)[C@H]1OP(=O)(O)O [AdA, adenophostin A]
ASSAYED_TARGET: IBC^R504Q fragment of IP3R1 (Rattus norvegicus, UniProt P29994, R504Q)
MEASURED_METRIC: pKd
OBS_VALUE: 6.83

---

# ASSAYED_TARGET: IP3R1^R568Q (Rattus norvegicus, UniProt P29994, DEL318-332/R568Q)
# MEASUREMENT_NOTES: Ca2+ release from permeabilized DT40 cells expressing only IP3R1^R568Q
MEASURED_METRIC: EC50 (nM)

CHEMICAL_STRING: Nc1ncnc2c1ncn2[C@@H]1O[C@H](CO)[C@@H](O[C@H]2O[C@H](CO)[C@@H](OP(=O)(O)O)[C@H](OP(=O)(O)O)[C@H]2O)[C@H]1OP(=O)(O)O
MEASURED_METRIC: EC50
OBS_VALUE: 20

---

# ASSAYED_TARGET: NT (residues 1–604) of IP3R1 (Rattus norvegicus, UniProt P29994, DEL318-332)
# Sequence (P29994 1-589 isoform P29994-2 limits assumed, stated change not applied): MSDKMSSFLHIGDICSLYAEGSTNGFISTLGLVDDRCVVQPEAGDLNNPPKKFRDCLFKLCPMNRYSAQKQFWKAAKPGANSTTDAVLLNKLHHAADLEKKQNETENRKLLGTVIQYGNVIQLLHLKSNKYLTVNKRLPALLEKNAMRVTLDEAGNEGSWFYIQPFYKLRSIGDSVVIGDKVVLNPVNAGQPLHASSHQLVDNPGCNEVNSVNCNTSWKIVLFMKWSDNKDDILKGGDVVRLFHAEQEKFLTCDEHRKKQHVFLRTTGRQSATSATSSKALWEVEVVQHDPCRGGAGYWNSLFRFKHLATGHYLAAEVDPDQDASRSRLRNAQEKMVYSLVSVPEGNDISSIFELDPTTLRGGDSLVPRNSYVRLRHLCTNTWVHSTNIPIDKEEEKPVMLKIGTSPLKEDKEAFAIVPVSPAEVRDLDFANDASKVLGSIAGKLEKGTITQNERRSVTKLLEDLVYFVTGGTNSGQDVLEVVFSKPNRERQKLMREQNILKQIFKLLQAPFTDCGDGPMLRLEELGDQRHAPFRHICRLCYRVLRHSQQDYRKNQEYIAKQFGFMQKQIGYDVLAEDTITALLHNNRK
# MEASUREMENT_NOTES: Equilibrium-competition 3H-IP3 binding to the NT fragment
# RECORDED_CONDITIONS: Kd, CLM

CHEMICAL_STRING: Nc1ncnc2c1ncn2[C@@H]1O[C@H](CO)[C@@H](O[C@H]2O[C@H](CO)[C@@H](OP(=O)(O)O)[C@H](OP(=O)(O)O)[C@H]2O)[C@H]1OP(=O)(O)O
RESULT_UNIT: nM
Kd: 3.44

---

# ASSAYED_TARGET: IBC^R568Q fragment of IP3R1 (Rattus norvegicus, UniProt P29994, R568Q)
# Sequence (P29994 224-604 R568Q): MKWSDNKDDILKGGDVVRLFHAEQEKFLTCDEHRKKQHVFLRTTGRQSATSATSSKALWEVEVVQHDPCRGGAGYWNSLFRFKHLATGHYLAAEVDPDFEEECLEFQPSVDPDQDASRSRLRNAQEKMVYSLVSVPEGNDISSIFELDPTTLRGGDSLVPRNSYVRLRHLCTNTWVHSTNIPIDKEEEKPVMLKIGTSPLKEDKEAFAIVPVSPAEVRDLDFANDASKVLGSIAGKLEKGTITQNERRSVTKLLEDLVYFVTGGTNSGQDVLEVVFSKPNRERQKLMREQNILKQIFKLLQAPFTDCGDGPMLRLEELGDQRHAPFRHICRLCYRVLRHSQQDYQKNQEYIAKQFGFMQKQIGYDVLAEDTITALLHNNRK
# MEASUREMENT_NOTES: Equilibrium-competition 3H-IP3 binding to IBC^R568Q
MEASURED_METRIC: Kd (nM)

COMPOUND: Nc1ncnc2c1ncn2[C@@H]1O[C@H](CO)[C@@H](O[C@H]2O[C@H](CO)[C@@H](OP(=O)(O)O)[C@H](OP(=O)(O)O)[C@H]2O)[C@H]1OP(=O)(O)O [AdA, adenophostin A]
ASSAYED_TARGET: IBC^R568Q fragment of IP3R1 (Rattus norvegicus, UniProt P29994, R568Q)
OBS_VALUE: 9.48

Attribution: paper PMC2998688
